- Test system: HeLa Kyoto;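 also: HeLa Kyoto cells arrested at G1/S by double thymidine block, proteins quantified by TMT10plex mass spectrometry in mild NP-40 versus SDS extracts, three biological replicates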
- Assay: solubility in G1/S (NP-40 vs SDS abundance) (log2 ratio); higher = more soluble
- Test context: cell cycle stage: G1/S
Could you label it 1 if measured solubility in G1/S (log2) is 0.03 or higher, and -1 otherwise?

// inclusive: solubility in G1/S (log2) at least 0.03? input: MARCERLRGAALRDVLGRAQGVLFDCDGVLWNGERAVPGAPELLERLARAGKAALFVSNNSRRARPELALRFARLGFGGLRAEQLFSSALCAARLLRQRLPGPPDAPGAVFVLGGEGLRAELRAAGLRLAGDPSAGDGAAPRVRAVLVGYDEHFSFAKLREACAHLRDPECLLVATDRDPWHPLSDGSRTPGTGSLAAAVETASGRQALVVGKPSPYMFECITENFSIDPARTLMVGDRLETDILFGHRCGMTTVLTLTGVSRLEEAQAYLAAGQHDLVPHYYVESIADLTEGLED [PDXP]
1

// inclusive: solubility in G1/S (log2) at least 0.03? input: MSAPLDAALHALQEEQARLKMRLWDLQQLRKELGDSPKDKVPFSVPKIPLVFRGHTQQDPEVPKSLVSNLRIHCPLLAGSALITFDDPKVAEQVLQQKEHTINMEECRLRVQVQPLELPMVTTIQMSSQLSGRRVLVTGFPASLRLSEEELLDKLEIFFGKTRNGGGDVDVRELLPGSVMLGFARDGVAQRLCQIGQFTVPLGGQQVPLRVSPYVNGEIQKAEIRSQPVPRSVLVLNIPDILDGPELHDVLEIHFQKPTRGGGEVEALTVVPQGQQGLAVFTSESG [IFI35]
1

// inclusive: solubility in G1/S (log2) at least 0.03? input: MAGYLKLVCVSFQRQGFHTVGSRCKNRTGAEHLWLTRHLRDPFVKAAKVESYRCRSAFKLLEVNERHQILRPGLRVLDCGAAPGAWSQVAVQKVNAAGTDPSSPVGFVLGVDLLHIFPLEGATFLCPADVTDPRTSQRILEVLPGRRADVILSDMAPNATGFRDLDHDRLISLCLTLLSVTPDILQPGGTFLCKTWAGSQSRRLQRRLTEEFQNVRIIKPEASRKESSEVYFLATQYHGRKGTVKQ [FTSJ2]
-1

// inclusive: solubility in G1/S (log2) at least 0.03? input: MGLETEKADVQLFMDDDSYSHHSGLEYADPEKFADSDQDRDPHRLNSHLKLGFEDVIAEPVTTHSFDKVWICSHALFEISKYVMYKFLTVFLAIPLAFIAGILFATLSCLHIWILMPFVKTCLMVLPSVQTIWKSVTDVIIAPLCTSVGRCFSSVSLQLSQD [CAV2]
-1

// inclusive: solubility in G1/S (log2) at least 0.03? input: MAPEENAGTELLLQSFERRFLAARTLRSFPWQSLEAKLRDSSDSELLRDILHKTVKHPVCVKHPPSVKYARCFLSELIKKHEAVHTEPLDELYEALAETLMAKESTQGHRSYLLPSGGSVTLSESTAIISYGTTGLVTWDAALYLAEWAIENPAVFTNRTVLELGSGAGLTGLAICKMCRPRAYIFSDCHSRVLEQLRGNVLLNGLSLEADITAKLDSPRVTVAQLDWDVATVHQLSAFQPDVVIAADVLYCPEAIMSLVGVLRRLAACREHQRAPEVYVAFTVRNPETCQLFTTELGRAGIRWEVEPRHEQKLFPYEEHLEMAMLNLTL [EEF2KMT]
1
